# Test system: Staphylococcus aureus (ATCC 25923)
# assay-method-text: Disk sensitivity test (modified Kirby-Bauer), S. aureus;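 further: Compound-loaded filter disks on LB agar plates seeded with a confluent bacterial lawn, compound dissolved in DMSO, plates kept overnight at 37 °C, then inhibition zone around disk measured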
# Format: cell-based
# protocol-conditions: 5.7 × 10^−4 mM
Marks after values point to notes of the source that are not given here.
Exercise: for every item that follows, state its recorded Diameter of the zone of growth inhibition.

Inquiry: # lookup: Diameter of the zone of growth inhibition of Fc1cccc(C(F)(F)F)c1N=C(N=C(Nc1c(F)cccc1C(F)(F)F)C(F)(F)C(F)(F)C(F)(F)F)C(F)(F)C(F)(F)C(F)(F)F [[N{(C3F7)C(2-F,6-(CF3)C6H3)N}2]H]
Reply text: 6.0 (NZ) mm

Inquiry: Give its Diameter of the zone of growth inhibition value. Item: Fc1cccc(C(F)(F)F)c1N=C(N=C([N]([Ag])c1c(F)cccc1C(F)(F)F)C(F)(F)C(F)(F)C(F)(F)F)C(F)(F)C(F)(F)C(F)(F)F [[N{(C3F7)C(2-F,6-CF3C6H3)N}2]Ag]
Reply text: 6.0 (NZ) mm

Inquiry: Return reported Diameter of the zone of growth inhibition; argument: FC(F)(F)C(F)(F)C(F)(F)C(=Nc1c(Cl)cccc1Cl)N=C([N]([Ag])c1c(Cl)cccc1Cl)C(F)(F)C(F)(F)C(F)(F)F [[N{(C3F7)C(2,6-Cl2C6H3)N}2]Ag]
Reply text: 6.0 (NZ) mm

Inquiry: Return reported Diameter of the zone of growth inhibition; argument: Fc1c(F)c(F)c(N=C(N=C([N]([Ag])c2c(F)c(F)c(F)c(F)c2F)C(F)(F)C(F)(F)C(F)(F)F)C(F)(F)C(F)(F)C(F)(F)F)c(F)c1F [[N{(C3F7)C(C6F5)N}2]Ag]
Reply text: 6.0 (NZ)^b mm

Inquiry: # query: Diameter of the zone of growth inhibition of entry FC(F)(F)C(F)(F)C(F)(F)C(=Nc1c(Cl)cccc1Cl)N=C(Nc1c(Cl)cccc1Cl)C(F)(F)C(F)(F)C(F)(F)F [[N{(C3F7)C(2,6-Cl2C6H3)N}2]H]
Reply text: 7.0 mm

Inquiry: Given the entry Fc1c(F)c(F)c(N=C(N=C(Nc2c(F)c(F)c(F)c(F)c2F)C(F)(F)C(F)(F)C(F)(F)F)C(F)(F)C(F)(F)C(F)(F)F)c(F)c1F [[N{(C3F7)C(C6F5)N}2]H] , report its measured Diameter of the zone of growth inhibition.
Reply text: 6.0 (NZ) mm
